Reported pIC50 is given for each of the following compounds.
Test system: SW480
ASSAY_COMMENT: Cytotoxicity against COX-2 negative human SW480 cells assessed as growth inhibition by CellTiter-96 AQueous assay
Format: functional, cell-based
API: returns pIC50 as number; meaning -log10 of concentration in mol/L.

In the examples that follow, each entry is paired with its recorded pIC50.
# COMPOUND, pIC50
rows = [
    ("CC(C)(C)c1cc(/C=N/NC(=O)c2ccccc2)c(O)c(C(C)(C)C)c1", 4.45),
    ("CC(C)(C)c1cc(/C=N/NC(=O)c2ccncc2)c(O)c(C(C)(C)C)c1", 4.47),
    ("CC(C)(C)c1cc(/C=N/NC(=O)c2cccnc2)c(O)c(C(C)(C)C)c1", 4.43),
    ("CC1(C)Cc2c(-c3ccccc3)c(-c3ccc(Cl)cc3)c(CC(=O)O)n2C1 [LICOFELONE]", 4.17),
    ("Cc1ccc(-c2cc(C(F)(F)F)nn2-c2ccc(S(N)(=O)=O)cc2)cc1 [CELECOXIB]", 5.16),
]

--- query ---
[ask] State its pIC50 on SW480: "CC(C)(C)c1cc(/C=N/NC(=O)c2ccccc2O)c(O)c(C(C)(C)C)c1"
[reply] 4.81

###

ASSAY_COMMENT: Ratio of IC50 for COX-2 positive human HCA-7 cells to IC50 for COX-2 positive human HCA-7 cells transfected with CD44v6shRNA
Format: functional
Reported Ratio IC50 is given for each of the following compounds.
Reply with the value as a number alone.

In the examples that follow, each entry is paired with its recorded Ratio IC50.
# MOLECULE_SMILES, READOUT_VALUE
data = [
    ("CC(C)(C)c1cc(/C=N/NC(=O)c2ccccc2O)c(O)c(C(C)(C)C)c1", 21),
    ("CC(C)(C)c1cc(/C=N/NC(=O)c2ccccc2)c(O)c(C(C)(C)C)c1", 7.7),
    ("CC(C)(C)c1cc(/C=N/NC(=O)c2cccnc2)c(O)c(C(C)(C)C)c1", 14),
]

[ask] For the compound "CC(C)(C)c1cc(/C=N/NC(=O)c2ccncc2)c(O)c(C(C)(C)C)c1" , what Ratio IC50 is on record?
[reply] 8.4

###

TARGET_OF_ASSAY: UniProtKB P09917
Sequence (P09917 whole entry): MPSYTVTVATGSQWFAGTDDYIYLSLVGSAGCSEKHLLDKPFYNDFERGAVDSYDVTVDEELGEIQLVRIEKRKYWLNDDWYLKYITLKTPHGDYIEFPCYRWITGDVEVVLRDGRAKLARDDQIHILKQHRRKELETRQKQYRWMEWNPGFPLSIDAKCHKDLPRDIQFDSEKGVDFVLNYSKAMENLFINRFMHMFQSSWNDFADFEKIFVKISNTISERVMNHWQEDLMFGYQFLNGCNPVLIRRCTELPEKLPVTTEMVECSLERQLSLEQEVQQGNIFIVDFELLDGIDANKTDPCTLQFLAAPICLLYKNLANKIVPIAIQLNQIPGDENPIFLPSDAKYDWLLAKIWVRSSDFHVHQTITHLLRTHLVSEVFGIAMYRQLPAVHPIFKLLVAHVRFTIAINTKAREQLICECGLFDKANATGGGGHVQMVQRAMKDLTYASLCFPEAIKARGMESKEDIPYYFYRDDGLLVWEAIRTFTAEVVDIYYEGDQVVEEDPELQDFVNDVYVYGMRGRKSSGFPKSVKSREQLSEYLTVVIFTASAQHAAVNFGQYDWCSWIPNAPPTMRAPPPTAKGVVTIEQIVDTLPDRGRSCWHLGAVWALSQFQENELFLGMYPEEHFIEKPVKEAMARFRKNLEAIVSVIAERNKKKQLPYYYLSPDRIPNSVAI
MEASUREMENT_LABEL: IC50 (µM)
Give the quantity in µM, number only.

[ask] For the compound "CC(C)(C)c1cc(/C=N/NC(=O)c2ccccc2)c(O)c(C(C)(C)C)c1" , what IC50 is on record?
[reply] 5.88

###

Reported Ratio IC50 is given for each of the following compounds.
Tested on: HT-29
ASSAY_COMMENT: Ratio of IC50 for COX-2 positive human HT-29 cells to IC50 for COX-2 positive human HT-29 cells transfected with CD44v6shRNA
Format: functional

[ask] For the compound "CC(C)(C)c1cc(/C=N/NC(=O)c2ccccc2)c(O)c(C(C)(C)C)c1" , what Ratio IC50 is on record?
[reply] 6.7

[ask] For the compound "CC(C)(C)c1cc(/C=N/NC(=O)c2ccccc2O)c(O)c(C(C)(C)C)c1" , what Ratio IC50 is on record?
[reply] 20

[ask] For the compound "CC(C)(C)c1cc(/C=N/NC(=O)c2ccncc2)c(O)c(C(C)(C)C)c1" , what Ratio IC50 is on record?
[reply] 8

[ask] For the compound "CC(C)(C)c1cc(/C=N/NC(=O)c2cccnc2)c(O)c(C(C)(C)C)c1" , what Ratio IC50 is on record?
[reply] 12
